// provenance: paper PMC12416549

Listed below: apparent Kd (screen) values for each entry.
Target: T1, TNFR1 (Homo sapiens, UniProt P19438)
T1 chain: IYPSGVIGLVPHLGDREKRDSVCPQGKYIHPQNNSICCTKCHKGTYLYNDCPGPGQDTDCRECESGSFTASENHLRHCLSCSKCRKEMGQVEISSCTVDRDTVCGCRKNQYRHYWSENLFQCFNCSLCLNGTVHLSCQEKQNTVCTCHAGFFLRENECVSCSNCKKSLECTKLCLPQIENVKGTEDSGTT
Assay: yeast display SC50
Express the reported value numerically, then name its unit.

Please review the following examples before continuing.
K31Y (designed binder) SMEEEVEKAAKEYEKKKKEAIEKHLEKLKAYDKEAAERFLKELEEAAKEYAKDEAKTMSEEEAKRRAKKYKEKVLLSELSEEEQKEIKEAEEKLVRTILKYVEEAAK
0.49 nM
V6M (designed binder) SMEEEMEKAAKEYEKKKKEAIEKHLEKLKAKDKEAAERFLKELEEAAKEYAKDEAKTMSEEEAKRRAKKYKEKVLLSELSEEEQKEIKEAEEKLVRTILKYVEEAAK
2.73 nM
E86S (designed binder) SMEEEVEKAAKEYEKKKKEAIEKHLEKLKAKDKEAAERFLKELEEAAKEYAKDEAKTMSEEEAKRRAKKYKEKVLLSELSEEEQKSIKEAEEKLVRTILKYVEEAAK
0.718 nM
E44Q (designed binder) SMEEEVEKAAKEYEKKKKEAIEKHLEKLKAKDKEAAERFLKELQEAAKEYAKDEAKTMSEEEAKRRAKKYKEKVLLSELSEEEQKEIKEAEEKLVRTILKYVEEAAK
0.653 nM
D32Q (designed binder) SMEEEVEKAAKEYEKKKKEAIEKHLEKLKAKQKEAAERFLKELEEAAKEYAKDEAKTMSEEEAKRRAKKYKEKVLLSELSEEEQKEIKEAEEKLVRTILKYVEEAAK
1.16 nM
Y50D (designed binder) SMEEEVEKAAKEYEKKKKEAIEKHLEKLKAKDKEAAERFLKELEEAAKEDAKDEAKTMSEEEAKRRAKKYKEKVLLSELSEEEQKEIKEAEEKLVRTILKYVEEAAK
7.78 nM

Asked: Endpoint output: apparent Kd (screen) of E22C (designed binder) SMEEEVEKAAKEYEKKKKEAICKHLEKLKAKDKEAAERFLKELEEAAKEYAKDEAKTMSEEEAKRRAKKYKEKVLLSELSEEEQKEIKEAEEKLVRTILKYVEEAAK . Value?
Given back: 1.05 nM

Asked: Find the recorded apparent Kd (screen) belonging to Q84E (designed binder) SMEEEVEKAAKEYEKKKKEAIEKHLEKLKAKDKEAAERFLKELEEAAKEYAKDEAKTMSEEEAKRRAKKYKEKVLLSELSEEEEKEIKEAEEKLVRTILKYVEEAAK and report it.
Given back: 4.39 nM
